target: Scavenger receptor class B member 1 (Mus musculus) (UniProt Q61009); test: enhancers of DiI-HDL lipid transfer via SR-BI – cell-based, ldlA[mSR-BI] CHO, DiI fluorescence, cherry-pick, dose response (AID 602191); conditions: ldlA[mSR-BI] CHO cells, 3 h, at 35 µM (top of the series);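 note: cell fluorescence from internalized DiI-labeled HDL after washing; 0% = median of DMSO wells and 100% = twice the DMSO signal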
Sequence (Q61009 whole entry, looked up): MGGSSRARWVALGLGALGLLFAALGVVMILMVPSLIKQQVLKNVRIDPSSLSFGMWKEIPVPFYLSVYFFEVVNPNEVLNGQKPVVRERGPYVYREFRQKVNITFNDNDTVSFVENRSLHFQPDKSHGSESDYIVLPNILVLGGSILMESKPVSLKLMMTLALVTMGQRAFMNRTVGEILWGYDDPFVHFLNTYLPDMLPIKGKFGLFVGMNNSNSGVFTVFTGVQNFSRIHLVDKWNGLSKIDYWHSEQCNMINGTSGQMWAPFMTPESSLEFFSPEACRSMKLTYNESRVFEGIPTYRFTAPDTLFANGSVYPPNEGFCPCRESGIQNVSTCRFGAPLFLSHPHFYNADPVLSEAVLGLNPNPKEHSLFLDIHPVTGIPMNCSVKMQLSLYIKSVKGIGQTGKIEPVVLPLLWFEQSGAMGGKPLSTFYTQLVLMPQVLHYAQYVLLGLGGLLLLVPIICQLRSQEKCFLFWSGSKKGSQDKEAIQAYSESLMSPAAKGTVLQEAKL
endpoint_name: activation (HDL uptake increase) (%)

[
  {
    "compound": "COc1ccccc1-c1nc(SCC(=O)Nc2ccccc2F)n[nH]1",
    "endpoint_name": "activation (HDL uptake increase)",
    "quantitative_result": -24.3
  },
  {
    "compound": "COc1ccccc1N(CC(=O)Nc1cc(C)on1)S(=O)(=O)c1cccc(C(F)(F)F)c1",
    "endpoint_name": "activation (HDL uptake increase)",
    "quantitative_result": 1.11
  },
  {
    "compound": "Cc1ccc(N2C(=O)C3C(C(=O)c4ccccc4)=NN(c4ccccc4)C3C2=O)cc1 (centres undefined)",
    "endpoint_name": "activation (HDL uptake increase)",
    "quantitative_result": 0.966
  },
  {
    "compound": "CC(C)NC(=O)c1ccc(CS(=O)(=O)c2ccc(Br)cc2)o1",
    "endpoint_name": "activation (HDL uptake increase)",
    "quantitative_result": -7.98
  },
  {
    "compound": "CC(=O)N1CCN(C(=O)c2ccc(-n3c(C)ccc3C)cc2)CC1",
    "endpoint_name": "activation (HDL uptake increase)",
    "quantitative_result": -10.8
  },
  {
    "compound": "Cc1ccc(C(=O)N/C(=C/c2ccccc2)C(=O)NC(Cc2ccccc2)C(=O)O)cc1 (centres undefined)",
    "endpoint_name": "activation (HDL uptake increase)",
    "quantitative_result": 8.63
  },
  {
    "compound": "O=C1CCCC/C=C\\C[C@H](CC(=O)N(CCO)Cc2ccccc2)C(=O)N2CCC[C@@H]2CO1",
    "endpoint_name": "activation (HDL uptake increase)",
    "quantitative_result": -5.56
  },
  {
    "compound": "Cc1cccn2c(CN[C@@H]3CCCC[C@H]3c3ccccc3)c(C(=O)N3CCOCC3)nc12",
    "endpoint_name": "activation (HDL uptake increase)",
    "quantitative_result": -6.75
  },
  {
    "compound": "C=CC[C@@H](CC(=O)N[C@@H](CO)Cc1ccccc1)C(=O)N[C@@H](COC(=O)[C@@H](CC=C)Cc1ccc(F)cc1)Cc1c[nH]c2ccccc12",
    "endpoint_name": "activation (HDL uptake increase)",
    "quantitative_result": -7.03
  },
  {
    "compound": "O=S1(=O)CCO[C@H]2Cc3ccccc3[C@H]2N1Cc1ccccc1",
    "endpoint_name": "activation (HDL uptake increase)",
    "quantitative_result": -12.6
  },
  {
    "compound": "O=C(CNC(=O)c1cncc(Br)c1)Nc1ccc(F)c(F)c1F",
    "endpoint_name": "activation (HDL uptake increase)",
    "quantitative_result": -11
  },
  {
    "compound": "CCc1ccc2[nH]c(=O)c(CN(CCN(C)C)C(=O)Nc3ccccc3OC)cc2c1",
    "endpoint_name": "activation (HDL uptake increase)",
    "quantitative_result": -2.31
  },
  {
    "compound": "CC1CCc2c(C(=O)NCCN3CCOCC3)csc2C1 (centres undefined)",
    "endpoint_name": "activation (HDL uptake increase)",
    "quantitative_result": -15.7
  },
  {
    "compound": "CCN1CCN(C(=O)/C(=C/c2ccco2)NC(=O)c2ccccc2)CC1",
    "endpoint_name": "activation (HDL uptake increase)",
    "quantitative_result": -3.29
  }
]

====

compounds and their reported activation (HDL uptake increase)
molecular target: Scavenger receptor class B member 1 (Mus musculus) (UniProt Q61009); assay: enhancers of DiI-HDL lipid transfer via SR-BI – cell-based, ldlA[mSR-BI] CHO, DiI fluorescence, cherry-pick, dose response (AID 602191); conditions: ldlA[mSR-BI] CHO cells, 3 h, at 35 µM (top of the series);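 note: cell fluorescence from internalized DiI-labeled HDL after washing; 0% = median of DMSO wells and 100% = twice the DMSO signal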

[
  {
    "compound": "Cc1ccc(NC(=O)CSCC(N)=O)cc1C",
    "activation (HDL uptake increase) (%)": -9.19
  },
  {
    "compound": "CN1CCN(C(=O)c2ccccc2NC(=O)c2ccccc2Br)CC1",
    "activation (HDL uptake increase) (%)": -7.48
  },
  {
    "compound": "O=C(NCc1ccccc1)C1=C[C@H](c2coc3ccccc3c2=O)C[C@H](OCc2ccc(CO)cc2)O1",
    "activation (HDL uptake increase) (%)": -1.3
  },
  {
    "compound": "COc1ccc(N2CC(NS(=O)(=O)c3cccnc3)CC2=O)cc1 (centres undefined)",
    "activation (HDL uptake increase) (%)": -6.57
  },
  {
    "compound": "O=C(NC1CCCCCC1)C1c2ccccc2C(=O)N1CCCN1CCOCC1 (centres undefined)",
    "activation (HDL uptake increase) (%)": -1.53
  },
  {
    "compound": "COC(=O)[C@@H]1C[C@@]2(O)[C@H](O)[C@H](O)[C@H](O)C[C@H]2N1Cc1cccc2ccccc12",
    "activation (HDL uptake increase) (%)": 8.8
  },
  {
    "compound": "CC1(C)NC(=O)N(CC(=O)N2CCN(S(=O)(=O)c3ccccc3C(F)(F)F)CC2)C1=O",
    "activation (HDL uptake increase) (%)": -6.43
  },
  {
    "compound": "CC(C)COC(=O)Cc1c(O)c2ccccc2[nH]c1=O",
    "activation (HDL uptake increase) (%)": -2.53
  },
  {
    "compound": "O=C(CCN1C(=O)[C@@H]2Cc3ccccc3CN2C1=O)N[C@@H](C(=O)O)c1ccccc1",
    "activation (HDL uptake increase) (%)": -2.01
  },
  {
    "compound": "CCN1CCN(C(=O)C2CCC(=O)N(Cc3cccc(C(F)(F)F)c3)C2)CC1 (centres undefined)",
    "activation (HDL uptake increase) (%)": -0.502
  },
  {
    "compound": "O=C(COC(=O)C1CCCCC1)Nc1cccc(Br)c1",
    "activation (HDL uptake increase) (%)": -5.26
  },
  {
    "compound": "O=C(CNC(=O)c1ccc(Cl)cc1)NCC(F)(F)F",
    "activation (HDL uptake increase) (%)": -9.51
  },
  {
    "compound": "Cc1ccc(OCC(=O)N(C)CC(=O)NCc2ccco2)c(Br)c1",
    "activation (HDL uptake increase) (%)": -24.2
  },
  {
    "compound": "CC1Cc2cc(/C(O)=C3/C(=O)C(=O)N(CCN4CCOCC4)C3c3ccc([N+](=O)[O-])cc3)ccc2O1 (centres undefined)",
    "activation (HDL uptake increase) (%)": 13.1
  },
  {
    "compound": "CC(C)Cc1cc(C(=O)NCc2ccco2)no1",
    "activation (HDL uptake increase) (%)": -10.4
  },
  {
    "compound": "CCCC(=O)OCC(=O)Nc1ccc(OC(F)F)cc1",
    "activation (HDL uptake increase) (%)": 1.74
  },
  {
    "compound": "O=C(CCNC(=O)c1ccccc1Cl)NCC(c1ccc(F)cc1)N1CCOCC1 (centres undefined)",
    "activation (HDL uptake increase) (%)": -2.65
  },
  {
    "compound": "O=C(NCC(=O)N1CCN(c2ccccc2)CC1)c1ccc(Br)o1",
    "activation (HDL uptake increase) (%)": -14.4
  },
  {
    "compound": "CCCCCC1CC(CC(=O)O)C(=O)O1 (centres undefined)",
    "activation (HDL uptake increase) (%)": -5.76
  },
  {
    "compound": "OC(Cc1ccccc1)(c1ccccc1)C1CN2CCC1CC2 (centres undefined)",
    "activation (HDL uptake increase) (%)": -3.56
  },
  {
    "compound": "O=S(=O)(Nc1ccccc1OC(F)F)c1ccc(S(=O)(=O)N2CCCC2)cc1",
    "activation (HDL uptake increase) (%)": -11.8
  },
  {
    "compound": "C=CCOC(=O)C1=C[C@H](c2ccc(C(F)(F)F)cc2)C[C@H](OCCCCO)O1",
    "activation (HDL uptake increase) (%)": -10.3
  },
  {
    "compound": "COc1cccc(OCc2cc(C(=O)NC3CCOCC3)no2)c1",
    "activation (HDL uptake increase) (%)": -16.2
  },
  {
    "compound": "COC(=O)C1(C)NC(c2ccccc2OC)C2C(=O)N(c3ccccc3)C(=O)C21 (centres undefined)",
    "activation (HDL uptake increase) (%)": 7.27
  },
  {
    "compound": "Cc1ccc(SCC(=O)NNC(=O)CCS(=O)(=O)c2ccc(C)cc2)cc1",
    "activation (HDL uptake increase) (%)": 0.551
  },
  {
    "compound": "CCOC(=O)N1CCN(C(=O)c2nn(C)c3c2CSc2ccccc2-3)CC1",
    "activation (HDL uptake increase) (%)": -12.2
  },
  {
    "compound": "O=C(CSc1nnc(CCCOc2ccc(Cl)cc2Cl)o1)Nc1ccc(C(=O)O)cc1",
    "activation (HDL uptake increase) (%)": -4.13
  },
  {
    "compound": "O=C1N[C@@H](c2ccccc2)COC(=O)[C@H](Cc2ccc(F)cc2)CC/C=C/C[C@H]1CC(=O)N(CCO)Cc1ccccc1",
    "activation (HDL uptake increase) (%)": -5.36
  },
  {
    "compound": "O=C(COC(=O)c1cccs1)Nc1cccc(Cl)c1",
    "activation (HDL uptake increase) (%)": -3.43
  },
  {
    "compound": "COc1ccc(C(=O)NC(=O)CSc2nc3nc(C)cc(C)n3n2)cc1",
    "activation (HDL uptake increase) (%)": -8.5
  },
  {
    "compound": "COCCCNC(=O)CC(NS(=O)(=O)c1ccc(OC)cc1)c1ccc(OC)cc1 (centres undefined)",
    "activation (HDL uptake increase) (%)": -4.2
  },
  {
    "compound": "CNC[C@H](CC1CCCCC1)NC[C@H](Cc1ccccc1)NCCC12CC3CC(CC(C3)C1)C2",
    "activation (HDL uptake increase) (%)": -31.7
  },
  {
    "compound": "CC(C)C[C@H](NC(=O)c1nc[nH]c1C(=O)NC1CCN(C(=O)OC(C)(C)C)CC1)C(=O)OC(C)(C)C",
    "activation (HDL uptake increase) (%)": -3.21
  },
  {
    "compound": "CN1CCN(S(=O)(=O)c2cccc(C(=O)NC3(C)CCS(=O)(=O)C3)c2)CC1 (centres undefined)",
    "activation (HDL uptake increase) (%)": -5.92
  }
]
